Test system: PBMCs
Experiment: IL-2 and IFN gamma release in CD3/CD28 stimulated PBMC cells, assay (c)
Format: cell-based
Conditions: Homo sapiens, IL-2, read-out: IC50 Values for Inhibition of Cytokine Release, PBMCs IL-2
measured-metric: IC50 (nM)
Just the number please, in nM, no unit attached.

>>> data_value("COCCOCCOCCOc1cc(Nc2cc(Oc3ccc(NC(=O)Nc4cc(C(C)(C)C)nn4C)c4ccccc34)ccn2)cc(OC)c1")
33.8
>>> data_value("C#Cc1cc(Nc2nccc(Oc3ccc(NC(=O)Nc4cc(C(C)(C)C)nn4C)c4ccccc34)n2)cc(C(=O)NCCN2CCOCC2)c1")
17.5

Continue with the compound presented below.
(Q) Note IC50 for the compound shown: COCCOCCOCCOc1cc(Nc2nccc(Oc3ccc(NC(=O)Nc4cc(C(C)(C)C)nn4C)c4ccccc34)n2)cc(OC)c1
(A) 11.3
